Test system: myeloid leukemia patient primary cells Pat.14
Assay: cell viability (% survival relative to DMSO control); higher = less cytotoxic
Conditions: 10 nM; 72 h
propertyLabel: cell viability (%)
Please reply with the bare figure in % and do not write the unit itself.

The measured cell viability associated with CCn1c(=O)/c(=C2\Sc3ccccc3N2C)s/c1=C\c1cccc[n+]1CC.[Cl-] [MKT-077] reads 84.2

The measured cell viability associated with CCCCCCCCCCCCC/C=C/[C@@H](O)[C@H](CO)N(C)C [N,N-Dimethylsphingosine] reads 85

The measured cell viability associated with O=C(CCl)N(CCCNC(=O)C(F)(F)F)c1ccc([N+](=O)[O-])cc1 [ML-175] reads 82.6

The measured cell viability associated with C=C1NC(=O)c2cc(CN(C)c3ccc(C(=O)N[C@@H](CCC(=O)O)C(=O)O)s3)ccc2N1 [Raltitrexed] reads 94.5

The measured cell viability associated with O=C(/C=C/c1cccnc1)NCCCCC1CCN(C(=O)c2ccccc2)CC1 [Daporinad] reads 1.32
